Reported MEASURED FLUORESCENCE, RFU +5 min values follow for various molecules
System: Geobacillus stearothermophilus spores (ATCC 7953)
Test: Fluorescence of enzyme substrates in culture media with Geobacillus stearothermophilus spores (96-well plate, 60° C.)
Assay type: cell-based
Details: 5 × 10^3 spores; culture media pH 6.7; substrate 0.3 mg/mL; 60° C.; +5 min
Numeric answer only, unit RFU assumed.

MOLECULE: Cc1cc(=O)oc2cc(O[C@H]3O[C@H](CO)[C@@H](O)[C@H](O)[C@H]3O)c(Cl)cc12
VALUE MEASURED: 2251
--
MOLECULE: Cc1cc(=O)oc2cc(O[C@H]3O[C@H](CO)[C@@H](O)[C@H](O)[C@H]3O)ccc12 [MUG, reference compound]
VALUE MEASURED: 403
--
MOLECULE: Cc1cc(=O)oc2c(F)c(O[C@H]3O[C@H](CO)[C@@H](O)[C@H](O)[C@H]3O)ccc12 [Example 8F-MUG, reference compound]
VALUE MEASURED: 1422

Query: System Geobacillus stearothermophilus spores (ATCC 7953). Read-out MEASURED FLUORESCENCE, RFU +5 min. Item "Cc1cc(=O)oc2c(Cl)c(O[C@H]3O[C@H](CO)[C@@H](O)[C@H](O)[C@H]3O)ccc12" . Report value.
Reply: 3013

====

Reported MEASURED FLUORESCENCE, RFU +10 min values follow for various molecules
Test system: Geobacillus stearothermophilus spores (ATCC 7953)
Assay: Fluorescence of enzyme substrates in culture media with Geobacillus stearothermophilus spores (96-well plate, 60° C.)
Format: cell-based
Conditions: 5 × 10^3 spores; culture media pH 6.7; substrate 0.3 mg/mL; 60° C.; +10 min
Numeric answer only, unit RFU assumed.

Example entries and their recorded answers appear below.
MOLECULE: Cc1cc(=O)oc2c(F)c(O[C@H]3O[C@H](CO)[C@@H](O)[C@H](O)[C@H]3O)ccc12 [Example 8F-MUG, reference compound]
READOUT NAME: MEASURED FLUORESCENCE, RFU +10 min
UNIT DESCRIPTOR: RFU
VALUE MEASURED: 2869
--
MOLECULE: Cc1cc(=O)oc2c(Cl)c(O[C@H]3O[C@H](CO)[C@@H](O)[C@H](O)[C@H]3O)ccc12
READOUT NAME: MEASURED FLUORESCENCE, RFU +10 min
UNIT DESCRIPTOR: RFU
VALUE MEASURED: 6278
--
MOLECULE: Cc1cc(=O)oc2cc(O[C@H]3O[C@H](CO)[C@@H](O)[C@H](O)[C@H]3O)c(Cl)cc12
READOUT NAME: MEASURED FLUORESCENCE, RFU +10 min
UNIT DESCRIPTOR: RFU
VALUE MEASURED: 4622

Query: Specify measured MEASURED FLUORESCENCE, RFU +10 min for Cc1cc(=O)oc2cc(O[C@H]3O[C@H](CO)[C@@H](O)[C@H](O)[C@H]3O)ccc12 [MUG, reference compound] .
Reply: 464

====

Test system: Geobacillus stearothermophilus spores (ATCC 7953)
Assay: Fluorescence of enzyme substrates in culture media with Geobacillus stearothermophilus spores (96-well plate, 60° C.)
Assay type: cell-based
Conditions: 5 × 10^5 spores; culture media pH 6.7; substrate 0.3 mg/mL; 60° C.; 10 sec
READOUT NAME: MEASURED FLUORESCENCE, RFU 10 sec (RFU)
Numeric answer only, unit RFU assumed.

Example entries and their recorded answers appear below.
MOLECULE: Cc1cc(=O)oc2c(Cl)c(O[C@H]3O[C@H](CO)[C@@H](O)[C@H](O)[C@H]3O)ccc12
READOUT NAME: MEASURED FLUORESCENCE, RFU 10 sec
VALUE MEASURED: 21302
//
MOLECULE: Cc1cc(=O)oc2cc(O[C@H]3O[C@H](CO)[C@@H](O)[C@H](O)[C@H]3O)c(Cl)cc12
READOUT NAME: MEASURED FLUORESCENCE, RFU 10 sec
VALUE MEASURED: 17227
//
MOLECULE: Cc1cc(=O)oc2c(F)c(O[C@H]3O[C@H](CO)[C@@H](O)[C@H](O)[C@H]3O)ccc12 [Example 8F-MUG, reference compound]
READOUT NAME: MEASURED FLUORESCENCE, RFU 10 sec
VALUE MEASURED: 8975

For the next question, use this molecule.
Query: Specify measured MEASURED FLUORESCENCE, RFU 10 sec for Cc1cc(=O)oc2cc(O[C@H]3O[C@H](CO)[C@@H](O)[C@H](O)[C@H]3O)ccc12 [MUG, reference compound] .
Reply: 895
